The reported measurements were obtained from ChEMBL document CHEMBL1201862.

Tested on: A498
Assay remarks: NCI tumour cell line growth inhibition, 48 h
Active and inactive are the calls of the source. Rule as the data show it: active = GI50 up to about 1.1 µM and inactive = higher.
This listing pairs molecules with measured GI50.

Examples with their reported GI50 follow.
# Molecule, Recorded result
data = [
    ("O=C(O)c1ccc(S(=O)(=O)c2ccccc2)c([N+](=O)[O-])c1", "> 100 µM (inactive)"),
    ("CC(Oc1ccc(Cl)cc1Cl)C(=O)NN1C(=O)CSC1c1ccc(Cl)cc1 (stereo not given)", "25.2 µM (inactive)"),
    ("Cn1cc(NC(=O)c2cc(NC(=O)c3cc(NC=O)cn3C)cn2C)cc1C(=O)NCCC(=N)N", "87.9 µM (inactive)"),
    ("O=C(NCC(=O)N1CCCC1C(=O)OC(=O)C1CCCN1C(=O)CNC(=O)OCc1ccccc1)OCc1ccccc1 (stereo not given)", "73.1 µM (inactive)"),
]

# query: GI50 of entry O=C(O)C1CCCN(CCc2c[nH]c3ccccc23)C1 (stereo not given) > 100 µM (inactive)

====

Test system: A549
Assay remarks: NCI tumour cell line growth inhibition, 48 h
Active and inactive are the calls of the source. No stated cut-off is given here; in the data, active = GI50 up to about 1.1 µM and inactive = higher.
I would appreciate it if you answered using one of these outcomes: T (active), F (inactive)

What call does the record list for CCOc1ccc2nc3nc(O)nc(C)c3c(NC(C)(CO)CO)c2c1 ? F

How did this test come out for COc1ccc2nc(N/N=C/c3sccc3C)cc(C)c2c1 ? F

Hi team, can someone confirm the assay call for O=C(O)C(O)C(O)C(O)C(O)c1nc2ccccc2s1 (stereo not given) ? F

====

System: SF-295
Assay remarks: NCI tumour cell line growth inhibition, 48 h
Activity calls are given as the source filed them. No stated cut-off is given here; in the data, active = GI50 up to about 1.1 µM and inactive = higher.
Valid outcomes are listed here; reply with one: 1 for active, -1 for inactive

# Molecule, Target, Category label
rows = [
    ("CCOC(=O)NC(=O)c1cn(-c2ccc(CCOC(=O)NCCCCCCNC(=O)OCCc3ccc(-n4c(=O)[nH]cc(C(=O)NC(=O)OCC)c4=O)cc3)cc2)c(=O)[nH]c1=O", "SF-295", -1),
    ("Cc1c2cc[n+](C)cc2c(C)c2c1[nH]c1ccc(O)cc12 [ELLIPTINIUM ACETATE]", "SF-295", -1),
    ("NCCCCN(CCCN)Cc1ccccc1", "SF-295", -1),
    ("C[Si](C)(C)C(CCCCSc1ccccc1)(Sc1ccccc1)Sc1ccccc1", "SF-295", -1),
    ("OC12c3ccccc3C1CCCCCC21OCCCO1 (stereo unspecified)", "SF-295", -1),
]

Outcome? CCO/C=C1\N=C(c2ccccc2Br)OC1=O -1

For this molecule, state the assay outcome: O=C(NCCNCCO)N/N=C/c1ccccc1 -1

// outcome(item) with item = Cc1cc(S(=O)(=O)Nc2nc(N)nc(N3N=CCC3C)n2)c(S)cc1Cl (stereo unspecified) -1

Hi, do you know how CCSc1n/c(=C\c2ccco2)c2nncn12 came out in this test? -1

Write down the call the test reported for this molecule. Item: COc1cccc(C2c3cc4c(cc3OC(N3CCCC3)C2C)OCO4)c1OC (stereo unspecified) -1

Outcome logged for O=c1[nH]c(=O)n([C@@H]2O[C@H](CO)[C@@H](O)[C@H]2O)cc1F in this assay: 1

====

Known GI50 of a selection of compounds
Test system: NCI-H226
Assay remarks: NCI tumour cell line growth inhibition, 48 h
Active and inactive are the calls of the source. Cut-off read from the data, not from the text of the source: active = GI50 up to about 1.1 µM and inactive = higher.

The cases that follow already have their GI50 on record.
# Compound, Target, Recorded result
records = [
    ("CC(=O)O[C@H]1CC[C@@]2(C)C(=C/C(=N\\[N+](=O)[O-])[C@H]3C4CCC([C@H](C)CCCC(C)C)[C@@]4(C)CCC32)C1 (stereo partly specified)", "NCI-H226", "> 100 µM (inactive)"),
    ("CCN(CC)Cc1ccc2cccnc2c1O", "NCI-H226", "6.08 µM (inactive)"),
]

Entry O=S1(=O)OCCOS(=O)(=O)C1(Cl)Cl : reported GI50 = ? 41.1 µM (inactive)

Would you kindly share the measured GI50 for CCCCC1=C(Br)C(=C(Br)Br)OC1=O ? 4 µM (inactive)

Which GI50 is listed for Cc1cccc2c1NC(=O)/C2=N\Nc1ccccc1[N+](=O)[O-] ? 10.3 µM (inactive)

Return reported GI50; argument: O=C(NCCNCCO)N/N=C/c1ccccc1 > 100 µM (inactive)

====

The following molecules are listed with their measured GI50 values.
Tested on: MDA-N
Assay remarks: NCI tumour cell line growth inhibition, 48 h
The source made the active and inactive calls. Cut-off read from the data, not from the text of the source: active = GI50 up to about 1.1 µM and inactive = higher. Where a SMILES comes first, the peptide text is derived from it. [ ]: non-standard residue; d: D form. The star is where a group is joined. ξ: configuration not given here. NMeF = CN[C@@H](Cc1ccccc1)C(=O)O; NMeV = CN[C@H](C(=O)O)C(C)C; ξNMeN = CNC(CC(N)=O)C(=O)O; NMeA = CN[C@@H](C)C(=O)O; ξNMeV = CNC(C(=O)O)C(C)C; Boc = CC(C)(C)OC(=O)*

# Molecule, Target, Recorded result
data = [
    ("COC(=O)[C@H](C)N(C)C(=O)C(CC(N)=O)N(C)C(=O)[C@H](Cc1ccccc1)N(C)C(=O)[C@@H]1CCCN1C(=O)[C@H](C(C)C)N(C)C(=O)C(C(C)C)N(C)C(=O)[C@@H](NC(=O)OC(C)(C)C)C(C)C (some centres undefined) (Boc-V[ξNMeV][NMeV]P[NMeF][ξNMeN][NMeA]-OMe)", "MDA-N", "> 50 µM (inactive)"),
    ("COc1ccc(N[C@H](CSc2ccc(C)cc2)c2ccc(F)cc2)cc1", "MDA-N", "71.1 µM (inactive)"),
]

Under MDA-N: GI50 value of CC(C)C(NC(=O)C(Cc1ccccc1)NC(=O)[C@H]1CCC[C@H]1NC(=O)C(N)Cc1ccc(O)cc1)C(N)=O (some centres undefined) ? > 100 µM (inactive)

Test system MDA-N; read-out GI50; what value for O=[N+]([O-])c1ccc(SN=S=NSc2cccc(SN=S=NSc3ccc([N+](=O)[O-])cc3)c2)cc1 ? 30.8 µM (inactive)

====

System: HT-29
Assay remarks: NCI tumour cell line growth inhibition, 48 h
Active and inactive are the calls of the source. No stated cut-off is given here; in the data, active = GI50 up to about 1.1 µM and inactive = higher.
GI50 values for the molecules below.

Worked examples, 7 molecules total:
# Molecule, Recorded result
data = [
    ("COC(=O)C(COC(=O)/C=C/c1ccc(OC(C)=O)c(OC(C)=O)c1)OC(=O)/C=C/c1ccc(OC(C)=O)c(OC(C)=O)c1 (stereo not drawn)", "6.9 µM (inactive)"),
    ("CN1c2ccc(Cl)cc2C(=O)NC1c1ccc([N+](=O)[O-])s1 (stereo not drawn)", "18.9 µM (inactive)"),
    ("O=C(NCC(=O)N1CCCC1C(=O)OC(=O)C1CCCN1C(=O)CNC(=O)OCc1ccccc1)OCc1ccccc1 (stereo not drawn)", "24.1 µM (inactive)"),
    ("CCC(=O)Nc1ccc(N2C(=O)/C(=C/c3ccc(O)c(OC)c3)N=C2c2ccccc2)cc1", "33.7 µM (inactive)"),
    ("S=C(N/N=C/c1ccccn1)Nc1ccc(Cl)cc1", "0.0426 µM (active)"),
    ("C=C[C@@]1(C)CC(=O)[C@]2(O)[C@@]3(C)[C@@H](OC(C)=O)CCC(C)(C)[C@@H]3[C@H](OC(C)=O)[C@H](OC(C)=O)[C@@]2(C)O1", "> 100 µM (inactive)"),
    ("CCOC(=O)CC1(C(=O)OCC)c2[nH]c3ccccc3c2CCN1Cc1ccccc1 (stereo not drawn)", "14.4 µM (inactive)"),
]

Now, please, on to the next molecule.
Value lookup for GI50; key = COc1cc(C(C)c2cc3c(cc2OCCCCCOc2cc4c(cc2C(C)c2cc(OC)c(OC)c(OC)c2)OCO4)OCO3)cc(OC)c1OC (stereo not drawn) > 100 µM (inactive)

====

Test system: UACC-257
Assay remarks: NCI tumour cell line growth inhibition, 48 h
Activity calls are given as the source filed them. Cut-off read from the data, not from the text of the source: active = GI50 up to about 1.1 µM and inactive = higher.
Below, each entry is listed alongside its reported GI50.

In the examples that follow, each entry is paired with its recorded GI50.
# Molecule, Quantity measured, Recorded result
measured = [
    ("Nc1ncnc2c1ncn2C=C=CCO", "GI50", "> 100 µM (inactive)"),
    ("c1ccc2c(c1)SC1Sc3ccccc3[S+]21 (stereo not given)", "GI50", "17.3 µM (inactive)"),
    ("Cc1cc(C)n(C(=O)CSc2nnc(SCC(=O)n3nc(C)cc3C)s2)n1", "GI50", "> 100 µM (inactive)"),
    ("O=C(NC1C(O)C(O)C(CO)OC1n1cc(F)c(=O)[nH]c1=O)OCc1ccccc1 (stereo not given)", "GI50", "> 100 µM (inactive)"),
    ("CN1c2ccc(Cl)cc2C(=O)NC1c1ccc([N+](=O)[O-])s1 (stereo not given)", "GI50", "15.1 µM (inactive)"),
]

Would you kindly look at the next entry?
Quick check: GI50 of CCOc1ccc(NC2=NC(=O)C(CC(=O)Nc3ccccc3[N+](=O)[O-])S2)cc1 (stereo not given) ? > 100 µM (inactive)
